Assay: Antagonist activity at human CCR2 in THP1 cells assessed as inhibition of MCP1-induced chemotaxis
pIC50: −log10 of the molar value.
Consider the reported pIC50 of an entry and match it to a band in class A: < 7; class B: ≥ 7 and < 8; class C: ≥ 8

>  <chemicalString>
O=C(CNC(=O)c1cccc(C(F)(F)F)c1)N[C@@H]1CCN(Cc2ccccc2)C1

>  <discreteLabel>
class A

$$$$
>  <chemicalString>
Nc1ccc(OC(F)(F)F)cc1C(=O)NCC(=O)N[C@@H]1CCN(Cc2ccc(Cl)cc2)C1

>  <discreteLabel>
class B

$$$$
>  <chemicalString>
Nc1ccc(C(F)(F)F)cc1C(=O)NCC(=O)N[C@@H]1CCN(Cc2ccc(Cl)cc2)C1

>  <discreteLabel>
class C

$$$$
>  <chemicalString>
O=C(CNC(=O)c1cccc(Br)c1)N[C@@H]1CCN(Cc2ccc(Cl)cc2)C1

>  <discreteLabel>
class A

$$$$
>  <chemicalString>
COc1ccc(CN2CC[C@@H](NC(=O)CNC(=O)c3cccc(C(F)(F)F)c3)C2)cc1

>  <discreteLabel>
class B

$$$$

* * *

# reported pIC50; entries follow
Experiment: Antagonist activity at human CCR2 in THP1 cells assessed as inhibition of MCP1-induced chemotaxis
pIC50: −log10 of the molar value.
endpoint: pIC50

>  <chemicalString>
C=Cc1ccc(CN2CC[C@@H](NC(=O)CNC(=O)c3cccc(C(F)(F)F)c3)C2)cc1

>  <recordedNumber>
8.21

$$$$
>  <chemicalString>
Cc1ccc(CN2CC[C@@H](NC(=O)CNC(=O)c3cccc(C(F)(F)F)c3)C2)c(C)c1

>  <recordedNumber>
7.80

$$$$
>  <chemicalString>
Cc1ccc(CN2CC[C@@H](NC(=O)CNC(=O)c3cc(C(F)(F)F)ccc3N)C2)cc1N

>  <recordedNumber>
7.92

$$$$
>  <chemicalString>
COc1ccc(CN2CC[C@@H](NC(=O)CNC(=O)c3cc(C(F)(F)F)ccc3N)C2)cc1N

>  <recordedNumber>
8.06

$$$$
